test: Tmax in Sprague-Dawley rat at 30 mg/kg, po by LC/MS analysis; assay type: ADME, organism-based; conditions: in vivo
Quantity kind: Tmax (min)
Entry rule: numbers only, all in min.

Would you please look over these solved cases?
CSc1cc(C)nc(SC)c1NC(=O)CN1CCN(CCSc2nc3ccccc3[nH]2)CC1.Cl	42
CSc1cc(C)nc(SC)c1NC(=O)CN1CCN(CCSc2nc3ncccc3o2)CC1	30

Recorded result, "CSc1cc(C)nc(SC)c1NC(=O)CN1CCN(CCSc2nc3ccccc3o2)CC1" , Tmax: 168
